tested on: SF-268 CNS; assay: NCI-60 one-dose screen, 48 h (100 = growth as untreated, 0 = no growth, -100 = all killed); conditions: 10 µM unless noted
This is part of a sample that, as a whole, favours compounds with a hit. Of some 83,000 tested, about 20% had one in any assay.
API: label(entry) gives Criterion met if the entry's growth is strictly smaller than 90%; on equality or larger values it gives Criterion not met.

See these solved cases before continuing.
CCOC(=O)Cc1cc(Br)c(OCc2ccccc2)c(Br)c1 :: Criterion not met
O=C1c2cccc3cccc(c23)C(=O)N1CCCCCCCCCCN1C(=O)c2cccc3cccc(c23)C1=O :: Criterion not met

For this compound, is growth lower than 90%? CC1=CC(=O)OC1C/C=C(\C)CCC1[C@@]2(C)CCC[C@@](C)(C(=O)O)C2CC[C@@]1(C)O (stereo not given in full)
Criterion met

Here is the next compound: "CCc1c(C)c2ccc(O)c(-c3cc(-c4ccccc4)c(C#N)c(=O)[nH]3)c2oc1=O"
Criterion not met

Try the compound "O=C(/C=C/c1ccccc1)c1c[nH]c2ccccc2c1=O"
Criterion met

Okay, and "CC(C)CCSc1nc(-c2ccc(F)cc2)c(C#N)c(N2CCCCC2)n1" ?
Criterion not met

Entry to check: "CCN(CC)CCNC(=O)C(F)(F)C(F)(F)C(F)(F)F"
Criterion not met

Then what about the compound "Oc1ccc(-c2nnc3c4[nH]ccc4ncn23)cc1" ?
Criterion not met

What do you get for "C=CC(=O)N1CN(C(=O)C=C)CN(C(=O)C=C)C1" ?
Criterion met

Try this compound next: "COc1cccc(-c2nc3sccn3c2-c2ccnc(NCCN3CCCN(C)S3(=O)=O)n2)c1"
Criterion not met

Quick one: "Clc1ccc(-c2cnc3c(-c4ccnc(N5CCNCC5)c4)cnn3c2)cc1"
Criterion met

Input "C[Si](C)(C)C(c1ccccc1)c1ccccc1"
Criterion not met

What about COc1ccc2c(c1)N(Cc1ccc(Cl)cc1)CCC2N1CCCC1=O (stereo not given) ?
Criterion met

And the next one, "Cc1ccsc1C(=O)CC(=O)C(F)(F)C(F)(F)C(F)(F)F" ?
Criterion not met

Also need "C=C(C)[C@@H]1CC[C@]2(C(=O)NC(COC(=O)C(Cl)Cl)(COC(=O)C(Cl)Cl)COC(=O)C(Cl)Cl)CC[C@]3(C)[C@H](CC[C@@H]4[C@@]5(C)CC[C@H](OC(C)=O)C(C)(C)[C@@H]5CC[C@]43C)[C@@H]12" , thanks.
Criterion met

The measurements presented in this section are drawn from PubChem BioAssay (NCI).
